Organism: Homo sapiens
PROTOCOL_DETAILS: Inhibition of HSP70 (unknown origin) at 200 uM pre-incubated for 30 mins followed by ATP addiction and measured after 3 hrs by malachite green reagent based colorimetric assay
RESULT_TYPE: inhibition
Please state the number and follow it with the unit.

[
  {
    "CPD_SMILES": "CSc1nccc(N2CCC(N(C)Cc3ccc(F)cc3)CC2)n1",
    "inhibition": "7.73%"
  }
]

Name the reported inhibition value associated with the molecule CCOc1ncc(CN2CCC(N(C)Cc3ccc(Cl)cc3Cl)CC2)s1
4.5%

Name the reported inhibition value associated with the molecule CSc1ncc(CN2CCC(N(C)Cc3ccc(Cl)cc3Cl)CC2)s1
6.21%

Name the reported inhibition value associated with the molecule N#Cc1ccc(COC[C@H]2O[C@@H](n3c(NCc4ccc(Cl)c(Cl)c4)nc4c(N)ncnc43)[C@H](O)[C@@H]2O)cc1
43%

Name the reported inhibition value associated with the molecule CN(Cc1ccc(C#N)cc1)C1CCN(Cc2cnc(Cl)s2)CC1
11.3%

###

System: MDA-MB-361
PROTOCOL_DETAILS: Growth inhibition of human MDA-MB-361 cells at 5 uM incubated for 72 hrs by ATP detection based luminescent assay
Type: functional
EXPERIMENTAL_PARAMETERS: MDA-MB-361, 72 h, read-out: GI
Could you label it 1 if measured inhibition of growth at 5 µM is 30% or higher, and 0 otherwise?

Worked examples, 4 compounds total:
[
  {
    "CPD_SMILES": "COc1cc(N2CCC(N(C)Cc3ccc(Cl)c(Cl)c3)CC2)ncn1",
    "ASSIGNED_CLASS": 0
  },
  {
    "CPD_SMILES": "CSc1ncc(CN2CCC(N(C)Cc3c(F)cccc3Cl)CC2)s1",
    "ASSIGNED_CLASS": 1
  },
  {
    "CPD_SMILES": "Fc1ccc(CNC2CCN(Cc3cnc(Cl)s3)CC2)cc1",
    "ASSIGNED_CLASS": 1
  },
  {
    "CPD_SMILES": "CSc1nccc(N2CCC(N(C)Cc3ccc(F)cc3)CC2)n1",
    "ASSIGNED_CLASS": 1
  }
]

Does CN(Cc1cccc(Cl)c1)C1CCN(Cc2cnc(Cl)s2)CC1 have a reported inhibition of growth at 5 µM of at least 30%?
0

###

Species on record: Homo sapiens
PROTOCOL_DETAILS: Inhibition of HSP70 (unknown origin) at 200 uM pre-incubated for 30 mins followed by ATP addiction and measured after 3 hrs by malachite green reagent based colorimetric assay
The entries below are paired with their reported inhibition.
Just the number in %, nothing appended.

Use these answered entries as a reference point.
[
  {
    "CPD_SMILES": "CSc1nccc(N2CCC(N(C)Cc3ccc(Cl)cc3Cl)CC2)n1",
    "RESULT_TYPE": "inhibition",
    "UNIT_OF_MEASUREMENT": "%",
    "VALUE_OBSERVED": 8.28
  },
  {
    "CPD_SMILES": "CSc1nccc(N2CCC(N(C)Cc3ccc(C#N)cc3)CC2)n1",
    "RESULT_TYPE": "inhibition",
    "UNIT_OF_MEASUREMENT": "%",
    "VALUE_OBSERVED": 8.14
  },
  {
    "CPD_SMILES": "CSc1nccc(N2CCC(N(C)Cc3ccccc3Cl)CC2)n1",
    "RESULT_TYPE": "inhibition",
    "UNIT_OF_MEASUREMENT": "%",
    "VALUE_OBSERVED": 11.6
  },
  {
    "CPD_SMILES": "CSc1ncc(CN2CCC(N(C)Cc3ccc(C)cc3)CC2)s1",
    "RESULT_TYPE": "inhibition",
    "UNIT_OF_MEASUREMENT": "%",
    "VALUE_OBSERVED": 10.6
  },
  {
    "CPD_SMILES": "CCOc1ncc(CN2CCC(N(C)Cc3ccc(C#N)cc3)CC2)s1",
    "RESULT_TYPE": "inhibition",
    "UNIT_OF_MEASUREMENT": "%",
    "VALUE_OBSERVED": 5.49
  }
]

Name the reported inhibition value associated with the molecule CSc1nccc(N2CCC(N(C)Cc3c(F)cccc3Cl)CC2)n1
20.4

Sourced from ChEMBL document CHEMBL3414474
